target: human TLR8 (Homo sapiens (Human), UniProt Q9NR97); assay: TLR8 inhibition reporter assay (HEK-Blue SEAP); conditions: read-out: TLR8 IC50; HEK-Blue cells overexpressing human TLR8, R848 15.9 μM stimulation, SEAP reporter;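 also: SEAP driven by IFN-β minimal promoter with five NF-κB and AP-1 sites, compounds tested 0.05 nM to 50 µM, 22 h incubation, inhibition relative to agonist plus DMSO wells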
Sequence (Q9NR97 27-1041): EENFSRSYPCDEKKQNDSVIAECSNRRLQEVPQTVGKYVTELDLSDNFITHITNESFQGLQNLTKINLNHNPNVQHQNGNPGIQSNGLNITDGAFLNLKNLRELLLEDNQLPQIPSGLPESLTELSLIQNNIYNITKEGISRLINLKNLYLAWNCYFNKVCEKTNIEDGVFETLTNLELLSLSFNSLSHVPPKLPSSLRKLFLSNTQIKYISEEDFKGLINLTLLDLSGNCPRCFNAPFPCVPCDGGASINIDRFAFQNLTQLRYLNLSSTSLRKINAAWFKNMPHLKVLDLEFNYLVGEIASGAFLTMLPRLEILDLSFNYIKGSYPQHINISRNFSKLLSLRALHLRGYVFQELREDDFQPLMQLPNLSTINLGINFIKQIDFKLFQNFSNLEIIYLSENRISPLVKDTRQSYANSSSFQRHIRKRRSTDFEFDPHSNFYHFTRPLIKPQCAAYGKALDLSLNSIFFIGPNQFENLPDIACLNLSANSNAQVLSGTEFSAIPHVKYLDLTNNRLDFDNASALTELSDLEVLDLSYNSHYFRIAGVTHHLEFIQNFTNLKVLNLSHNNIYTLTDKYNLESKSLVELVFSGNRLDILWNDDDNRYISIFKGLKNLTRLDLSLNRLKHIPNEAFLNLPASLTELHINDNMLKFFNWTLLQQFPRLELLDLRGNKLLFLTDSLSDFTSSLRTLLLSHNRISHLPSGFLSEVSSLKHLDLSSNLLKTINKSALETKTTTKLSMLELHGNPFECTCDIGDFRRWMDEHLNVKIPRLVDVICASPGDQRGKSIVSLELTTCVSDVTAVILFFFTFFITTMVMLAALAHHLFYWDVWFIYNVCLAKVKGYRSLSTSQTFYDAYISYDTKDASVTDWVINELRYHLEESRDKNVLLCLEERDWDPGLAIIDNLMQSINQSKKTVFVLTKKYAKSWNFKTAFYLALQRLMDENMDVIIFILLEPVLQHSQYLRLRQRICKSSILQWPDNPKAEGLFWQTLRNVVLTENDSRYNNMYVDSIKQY
reported-property: pIC50
Scale for pIC50: -log10 of concentration given in mol/L; no unit attached.

Value lookup for pIC50; key = Cc1c(N2CCC(N3CCC3)CC2)ncc2[nH]c(-c3cc(C)c4ncnn4c3)c(C(C)C)c12
8.82

What do you get for CNC(=O)CN1CCC(c2cc3c(C(C)C)c(-c4cn5ncnc5c(C)c4C)[nH]c3cn2)CC1 [Example 27] ?
7.07

What do you get for Cc1cc(-c2[nH]c3cnc(N4CCC(NCC5(C)COC5)CC4)c(F)c3c2C(C)C)cn2ncnc12 ?
9.82

What do you get for Cc1cc(-c2[nH]c3cnc(C4CCC(N5CC6(COC6)C5)CC4)c(F)c3c2C(C)C)cn2ncnc12 (stereo not shown) [Example 132] ?
8.30

Where these numbers come from: patent US11912703B2
